Known IC50 of a selection of compounds
# Test system: IL-2
# test.details: PHA-IL2 (cell activation and cytokine analysis)
# Type: cell-based
# test.parameters: 50% inhibition concentration class

{"columns": ["compound", "IC50"],
 "data": [
  ["CC1Oc2ccc(CCC3CCN(C(=O)COc4ccccc4-c4ccc5[nH]ncc5c4)CC3)cc2OC1C (stereo not shown) [Compound 268]", "< 1000 nM"],
  ["N#Cc1ccc(-c2cc(C(=O)NC3CCOCC3)ccc2OCC(=O)N2CCC(CCc3ccccc3)CC2)cc1 [Compound 368]", "1000 to 10000 nM"],
  ["Cc1nc2cc(-c3ccccc3OCC(=O)N3CCC(CCc4ccc(OC(C)C)cc4)CC3)ccc2[nH]1 [Compound 433]", "< 1000 nM"],
  ["COc1ccc(-c2ccccc2OCC(=O)N2CCC(CCc3ccc4c(c3)OCO4)CC2)cn1 [Compound 199]", "< 1000 nM"],
  ["Nc1ccc(CCC2CCN(C(=O)COc3ccccc3-c3ccccc3)CC2)cn1 [Compound 255]", "1000 to 10000 nM"],
  ["COc1cccc(CCC2CCN(C(=O)C[S+]([O-])c3ccccc3-c3ccccc3)CC2)c1 (stereo not shown) [Compound 313]", "10000 to 50000 nM"],
  ["C#Cc1ccc(-c2ccccc2OCC(=O)N2CCC(CCc3ccc4c(c3)OCO4)CC2)cc1 [Compound 250]", "< 1000 nM"],
  ["CC(Oc1ccccc1-c1ccccc1)C(=O)N1CCC(CCc2ccc3c(c2)OCO3)CC1 (stereo not shown) [Compound 153]", "10000 to 50000 nM"],
  ["Cn1ncc2cc(-c3ncccc3OCC(=O)N3CCC(CCc4cccc(OCCN5CCOCC5)c4)CC3)ccc21 [Compound 374]", "10000 to 50000 nM"],
  ["N#Cc1ccc(OCC(=O)N2CCC(CCc3cccc(O)c3)CC2)c(-c2ccc(C(=O)c3ccccc3)cc2)c1 [Compound 417]", "< 1000 nM"],
  ["O=C(COc1ccccc1-c1ccc(F)cc1O)N1CCC(CCc2cccc(OC(F)F)c2)CC1 [Compound 435]", "< 1000 nM"],
  ["Cc1cccc(-c2ccccc2OCC(=O)N2CCC(CCc3ccc4c(c3)OCO4)CC2)c1 [Compound 167]", "1000 to 10000 nM"],
  ["COc1c(F)cc(F)cc1-c1ccccc1OCC(=O)N1CCC(CCc2ccc3c(c2)OCO3)CC1 [Compound 242]", "1000 to 10000 nM"],
  ["O=C(COc1ccccc1-c1ccc(F)cc1O)N1CCC(CCc2cccc(OCCN3CCCC3)c2)CC1 [Compound 359]", "1000 to 10000 nM"],
  ["CC(C)Oc1cccc(CCC2CCN(C(=O)COc3ccc(C#N)cc3-c3ccc(C#N)cc3)CC2)c1 [Compound 413]", "< 1000 nM"],
  ["N#Cc1ccc(-c2ccccc2CCC(=O)N2CCC(CCc3ccc4c(c3)OCO4)CC2)cc1 [Compound 225]", "1000 to 10000 nM"],
  ["CCc1ccc(OCC(=O)N2CCC(CCc3ccc4c(c3)OCO4)CC2)c(-c2ccc(Cl)nc2)c1 [Compound 275]", "1000 to 10000 nM"],
  ["COc1cccc(-c2ccccc2OCC(=O)N2CCC(CCc3ccc4c(c3)OCO4)CC2)c1 [Compound 163]", "1000 to 10000 nM"],
  ["O=C(COc1cccnc1-c1ccc(F)cc1O)N1CCC(CCc2cccc(OC3CCCC3)c2)CC1 [Compound 410]", "< 1000 nM"],
  ["O=C(COc1ccccc1-c1ccc(F)cc1)N1CCC(CCc2ccc(O)cc2)CC1 [Compound 280]", "< 1000 nM"],
  ["Cn1ccc2cc(-c3ccccc3OCC(=O)N3CCC(CCc4ccc5c(c4)OCO5)CC3)ccc21 [Compound 384]", "1000 to 10000 nM"],
  ["COc1cccc(CCC2CCN(C(=O)COc3ccccc3-c3ccc4[nH]cnc4c3)CC2)c1 [Compound 371]", "< 1000 nM"],
  ["CC(C)Oc1ccc(CCC2CCN(C(=O)COc3ccccc3-c3ccc(C#N)cc3)CC2)cc1OC(C)C [Compound 301]", "< 1000 nM"],
  ["O=C(COc1ccccc1-c1ccc2[nH]ncc2c1)N1CCC(CCc2ccc3c(c2)OCCCO3)CC1 [Compound 267]", "< 1000 nM"],
  ["N#Cc1ccc(-c2cc(C#N)ccc2OCC(=O)N2CCC(CCc3cccc(OC(F)F)c3)CC2)cc1 [Compound 436]", "< 1000 nM"],
  ["COc1cccc(CCC2CCN(C(=O)COc3cccnc3-c3ccc4c(cnn4C)c3)CC2)c1 [Compound 373]", "1000 to 10000 nM"],
  ["N#Cc1ccc(-c2ccccc2OCC(=O)N2CCC(CCc3ccc4c(c3)OCO4)CC2)c(F)c1 [Compound 251]", "< 1000 nM"],
  ["COc1ccc(CCC2CCN(C(=O)COc3cccnc3-c3ccccc3)CC2)cc1OC [Compound 141]", "1000 to 10000 nM"],
  ["N#Cc1ccc(-c2cc(C(=O)NCCO)ccc2OCC(=O)N2CCC(CCc3ccccc3)CC2)cc1 [Compound 322]", "1000 to 10000 nM"],
  ["Cc1ccccc1-c1ccccc1OCC(=O)N1CCC(CCc2ccc3c(c2)OCO3)CC1 [Compound 155]", "1000 to 10000 nM"],
  ["N#Cc1ccc(-c2ccccc2C2CC2C(=O)N2CCC(CCc3ccccc3)CC2)cc1 (stereo not shown) [Compound 404]", "< 1000 nM"]
]}
